Study the reported pIC50 values for UniProt:P78536 given below; they originate from different publications.
pIC50: −log10 of the molar value.

Examples with their reported pIC50 follow.
Compound | Experimental readout | Assay value
CC#CCOc1ccc(S(=O)(=O)C2(C(=O)NO)CCN(C(=O)c3cccnc3)CC2)cc1 | pIC50 | 7.06
CC#CCOc1ccc(S(=O)(=O)C2(C(=O)NO)CCN(C(=O)c3ccc(OC)cc3)CC2)cc1 | pIC50 | 6.97
COc1cc(N2CCN(C(=O)CC[C@@]3(C)NC(=O)NC3=O)C[C@@H]2C)ccc1F | pIC50 | < 7.00
COc1ccc(C2(Cn3cccc(F)c3=O)NC(=O)NC2=O)cc1 (centres unmarked) | pIC50 | > 7.00
Cc1cccn(CC2(c3cccc(-c4ccncc4)c3)NC(=O)NC2=O)c1=O (centres unmarked) | pIC50 | > 7.00

Quick one: give measured pIC50 for Cc1cc(C2(Cn3cccc(C)c3=O)NC(=O)NC2=O)ccc1F (centres unmarked) > 7.00

Quick one: give measured pIC50 for O=CN(O)C(CS(=O)(=O)N1CCc2ccc(F)cc2C1)C1CCN(Cc2ccccc2)CC1 (centres unmarked) 6.61

Quick one: give measured pIC50 for Cc1cccn(CC2(c3cccc(F)c3F)NC(=O)NC2=O)c1=O (centres unmarked) > 7.00

----------
pIC50: −log10 of the molar value.
Study the reported pIC50 values for TACE (Homo sapiens (Human), UniProt P78536) given below; they originate from different publications.

Molecule | pIC50
Cc1cccn(CC2(c3cc(F)c(F)c(F)c3)NC(=O)NC2=O)c1=O (centres unmarked) | > 7.00

Param request: pIC50 | system TACE (Homo sapiens (Human), UniProt P78536) | item `CC#CCOc1ccc(S(=O)(=O)C2(C(=O)NO)CCN(S(=O)(=O)c3ccc(OC)cc3)CC2)cc1` 6.66

Param request: pIC50 | system TACE (Homo sapiens (Human), UniProt P78536) | item `CCCCOc1ccc(S(=O)(=O)C2(C(=O)NO)CCN(Cc3cccc(OC)c3)CC2)cc1` 6.57

Param request: pIC50 | system TACE (Homo sapiens (Human), UniProt P78536) | item Cc1cccn(CC2(c3cccc(-c4ccccc4)c3)NC(=O)NC2=O)c1=O (centres unmarked) > 7.00

Param request: pIC50 | system TACE (Homo sapiens (Human), UniProt P78536) | item COc1ccc(C2(Cn3cccc(Cl)c3=O)NC(=O)NC2=O)cc1 (centres unmarked) > 7.00

Param request: pIC50 | system TACE (Homo sapiens (Human), UniProt P78536) | item CCCOc1ccc2c(c1)CN(S(=O)(=O)CC(CC(C)(C)C)N(O)C=O)CC2 (centres unmarked) 5.95

Param request: pIC50 | system TACE (Homo sapiens (Human), UniProt P78536) | item `COc1cc(N2CCN(C(=O)CC[C@@]3(C)NC(=O)NC3=O)C[C@@H]2C)ccc1Cl` < 7.00

Param request: pIC50 | system TACE (Homo sapiens (Human), UniProt P78536) | item Cc1cccn(CC2(c3ccc(CCc4ccccc4)cc3)NC(=O)NC2=O)c1=O (centres unmarked) > 7.00

----------
Study the reported pIC50 values for TACE (Homo sapiens (Human), UniProt P78536) given below; they originate from different publications.
pIC50: −log10 of the molar value.
Experimental readout: pIC50

Compound | pIC50
CC(C)(C)CC(CS(=O)(=O)N1CCc2cc(Cl)c(Cl)cc2C1)N(O)C=O (centres unmarked) | 6.21
O=CN(O)C(COc1ccccc1)CS(=O)(=O)N1CCc2ccc(Cl)cc2C1 (centres unmarked) | 7.05
CC#CCOc1ccc(S(=O)(=O)CC2(C(=O)NO)CCN(C(=O)OCCCCCCCC)CC2)cc1 | 6.16
Cc1ccc(CN2CCC(C(=O)NO)(S(=O)(=O)c3ccc(OCc4ccc(Cl)cc4)cc3)CC2)cc1 | 6.38
CC#CCOc1ccc(S(=O)(=O)CC2(C(=O)NO)CCN(C(=O)NCC)CC2)cc1 | 7.38

1: CC#CCOc1ccc(S(=O)(=O)N[C@H]2CCC[C@H]2C(=O)NO)cc1
2: CC#CCOc1ccc(S(=O)(=O)CC2(C(=O)NO)CCN(C(=O)N(CC)CC)CC2)cc1
3: CCC(CC)C(CS(=O)(=O)N1CCc2cc(Cl)c(Cl)cc2C1)N(O)C=O (centres unmarked)
4: CCCCOc1ccc(S(=O)(=O)C2(C(=O)NO)CCN(C)CC2)cc1
5: O=CN(O)C(CS(=O)(=O)N1CCc2ccccc2C1)c1cccnc1 (centres unmarked)
Order field: pIC50 | Direction: descending (largest first) In your reply, arrange the labels in the requested order. 1, 2, 5, 3, 4
